Listed next: entries and their corresponding GI50.
# Test system: ACHN renal
# test: NCI tumour cell line growth inhibition, 48 h

Below, each entry is followed by its recorded GI50 result.
[[record]]
compound = "C=C1C(=O)O[C@H]2[C@H]1CC/C(COC(=O)N1CCC[C@H]1C(=O)Nc1ccc(OC)c(C(N)=O)c1O)=C\\CC[C@@]1(C)O[C@@H]21"
tested_target = "ACHN renal"
quantity_name = "GI50"
result = "2.9 µM"

[[record]]
compound = "CC(C)(C)c1ccc(S(=O)(=O)N[C@H]2CC[C@H]3[C@@H]4CCc5cc(OS(=O)(=O)O)ccc5[C@H]4CC[C@]23C)cc1"
tested_target = "ACHN renal"
quantity_name = "GI50"
result = "2.01 µM"

[[record]]
compound = "O=C1/C(=C/c2ccc(O)cc2)COc2ccc(-c3ccccc3)cc21"
tested_target = "ACHN renal"
quantity_name = "GI50"
result = "12.3 µM"


Name the recorded GI50 of the item `Nc1cc(N)c(N)cc1N` in your answer. 1.73 µM

Give the reported value of GI50 for this record: `COc1cc(Nc2nc(N[C@H]3CCCC[C@@H]3N)nc3cc[nH]c(=O)c23)cc(OC)c1` 1.38 µM

###

# System: SK-MEL-28 melanoma
# test: NCI tumour cell line growth inhibition, 48 h
The reader will find reported TGI values listed item by item below.

Consider the following illustrative entries.
[[record]]
compound = "NC(C(=O)[O-])C(=O)[O-].NC1CCCCC1N.[Pt+4]"
quantity_name = "TGI"
result = "> 100 µM"

[[record]]
compound = "Cc1cc2c(c(C=NCc3ccccc3)c1)OC1(C=C2)Oc2ccccc2C(=O)N1C (stereo not given)"
quantity_name = "TGI"
result = "> 100 µM"

[[record]]
compound = "CC(=O)Nc1ccc2c(c1)oc(=O)c1cc(NC(C)=O)ccc12"
quantity_name = "TGI"
result = "> 100 µM"

[[record]]
compound = "CC[C@H](CC#N)OC(=O)N[C@@H](C)c1cccc(NC(=O)Nc2ccc(-c3cnco3)c(OC)c2)c1"
quantity_name = "TGI"
result = "21.8 µM"


Continue with the next compound.
Determine from records and report TGI for Cc1ccc(C(O)c2cnc(C)n2Cc2ccccc2)cc1 (stereo not given) > 100 µM

###

# Tested on: OVCAR-8 ovarian
# test: NCI tumour cell line growth inhibition, 48 h
# GI50 per record follows

Give the measured GI50 for `O=C(CCl)N1c2ccccc2Sc2c1ccc1ccccc21` 2.13 µM

Specify measured GI50 for `Cc1nc2sc(C(=O)Nc3ccccc3)c(N)c2cc1C(=O)/C=C/c1ccccc1` . 3.03 µM

Respond only with GI50 recorded for `CC(=O)[O-].CC(=O)[O-].[NH2-].[Pt+2].c1ccc2cnccc2c1` 3.72 µM

Entry COC(=O)CNC(=O)[C@@H](OC)[C@@H]1Cc2cc3cc(OC4CC(OC5CC(O)C(O)C(C)O5)C(O)C(C)O4)c(C)c(O)c3c(O)c2C(=O)[C@H]1OC1CC(OC2CC(OC3CC(C)(O)C(O)C(C)O3)C(O)C(C)O2)C(O)C(C)O1 (some centres undefined) needs its GI50 filled in; supply it. 0.122 µM

Provide measured GI50 value, entry: `COc1cc[nH]c1/C=C1\C(=O)Nc2ccc(F)c(I)c21` > 25 µM

Indicate its recorded GI50; the compound in question is `COc1cc(-c2cn(-c3ccc(Cl)cc3)c(C)c2C(=O)C(F)(F)F)cc(OC)c1OC` > 100 µM

###

# Tested on: MDA-MB-435
Pick from active, inactive when you respond.

Before answering, review these 4 worked examples.
[[record]]
compound = "CC[C@H](CC#N)OC(=O)N[C@@H](C)c1cccc(NC(=O)Nc2ccc(-c3cnco3)c(OC)c2)c1"
group_label = "active"

[[record]]
compound = "C=C1CC[C@@H]2[C@](C)(COC(C)=O)[C@H](OC(C)=O)CC[C@@]2(C)[C@@H]1CC(Nc1ccc(S(=O)(=O)Nc2nccc(C)n2)cc1)C1=CCOC1=O (stereo not given in full)"
group_label = "inactive"

[[record]]
compound = "COc1c(N2CCN(CN3C(=O)C(=Nc4ccc(S(=O)(=O)Nc5ncccn5)cc4)c4ccccc43)C(C)C2)c(F)cc2c(=O)c(C(=O)O)cn(C3CC3)c12 (stereo not given)"
group_label = "inactive"

[[record]]
compound = "CC(C)(C)c1ccc(S(=O)(=O)N[C@H]2CC[C@H]3[C@@H]4CCc5cc(OS(=O)(=O)O)ccc5[C@H]4CC[C@]23C)cc1"
group_label = "inactive"


Consider now this further compound.
Record lookup: outcome of this test for `Cn1ccnc1C(=O)/C=C/c1ccc(CC(=O)Nc2ccccc2)cc1` ? inactive

###

# Test system: NCI-H23 lung
# test: NCI tumour cell line growth inhibition, 48 h
quantity_name: TGI

[[record]]
compound = "N[C@H](C(=O)O)[C@H](Cl)CC(=O)O"
result = "> 100 µM"

[[record]]
compound = "COc1ccc2oc3cccc(NCCN(C)C)c3c(=O)c2c1"
result = "32.7 µM"

[[record]]
compound = "COC(=O)c1csc(-c2nc(CCNC(=O)OC(C)(C)C)sc2Br)n1"
result = "> 100 µM"

[[record]]
compound = "CC(=O)O[C@@H]1CC2C(C)(C)CCCC2(C)C2=C1C(=O)C(C(C)C)=CC2=O (stereo partly drawn)"
result = "7.86 µM"

[[record]]
compound = "COC(=O)c1c(C)cccc1/C=C1\\Cc2cc(C)cc(C)c2C1=O"
result = "> 100 µM"


Dear colleague, please send me the reported TGI for `CC(=O)Nc1ccc2c(c1)oc(=O)c1cc(NC(C)=O)ccc12` when you can. > 100 µM

Supply TGI value. Item: `COCCOCCOC1=C(Cl)C(=O)c2c(O)ccc(O)c2C1=O` 6.03 µM

Find the measured TGI of CC12Cc3cc4c(cc3C1(c1ccc([N+](=O)[O-])cc1)OCCO2)OCO4 (stereo not drawn) and report it. > 100 µM

Query TGI for `N#Cc1c(NC(=S)NC(=O)c2ccccc2)nc2c(c1-c1ccccc1)CCCC2` > 100 µM

Indicate the recorded TGI value for this compound: `Brc1ccc2[nH]cc(-c3nc(-c4c[nH]c5ccccc45)cs3)c2c1` 8.84 µM

Answer with the recorded TGI of `COc1ccc2c3c(c(=O)n(C)c2c1OC)C=CC(C)(C)O3` only. 84.9 µM

Assign TGI to the following record: `Cc1nc2ccccc2c(=O)[nH]1` > 100 µM

Query TGI for O=C(CN1CCN(c2ccccc2)CC1)N1CCc2c([nH]c3ccccc23)C1c1cccnc1 (stereo not drawn) > 85.3 µM

Report measured TGI; entry is `COc1ccc(-c2cc(-c3cc(OC)c(OC)c(OC)c3)cc(-c3cc4ccccc4oc3=O)n2)cc1` 29.8 µM

State, in one line, measured TGI of Cc1ccc(C(O)c2cnc(C)n2Cc2ccccc2)cc1 (stereo not drawn) > 100 µM

Read off the recorded TGI for CC12CCC(=O)C=C1CCC1C2C(O)CC2(C)C(c3csc(N)n3)CCC12 (stereo not drawn) > 100 µM

Write down TGI measured for item Cc1cc2c(c(C=NCc3ccccc3)c1)OC1(C=C2)Oc2ccccc2C(=O)N1C (stereo not drawn) 69.6 µM

State its TGI: `CCO/N=[N+](\[O-])N(CC)CC` > 100 µM

Return TGI for the following compound: CCCCCCCCCCCCCCCCCCCCCC(=O)Nc1ccn(C2OC(CO)C(O)C2O)c(=O)n1 (stereo not drawn) > 100 µM

Give the reported TGI for this compound. Cc1cccc(C(O)c2ccncc2)c1O (stereo not drawn) > 100 µM

Supply measured TGI of `CC1S(=O)(=O)OCCOS1(=O)=O` in your reply. > 100 µM

Let me know recorded TGI for `Cc1c(NC(=S)Nc2ccc(Cl)cc2)c(=O)n(-c2ccccc2)n1C` , thanks. > 100 µM

Provide TGI value for the following compound: `CC/C=C\C/C=C\C/C=C\CCCCCCCC(=O)OCC` > 100 µM

###

# System: T-47D breast
# test: NCI tumour cell line growth inhibition, 48 h; in the data active = GI50 below about 0.43 µM; inactive = the rest
Respond using exactly one of the listed classes: y for active, n for inactive

// known answers, use as guide
[[record]]
smiles_text = "COc1ccc(-c2cn(-c3ccccc3)c(-c3ccccc3)n2)cc1OC"
group_label = "n"

[[record]]
smiles_text = "CCN(Cc1ccccc1OC)c1ccc(CO)c(Cl)c1"
group_label = "y"

[[record]]
smiles_text = "Oc1ccc(CCCCCCc2ccc(O)cc2)cc1"
group_label = "n"

[[record]]
smiles_text = "COc1cc(Nc2nc(N[C@H]3CCCC[C@@H]3N)nc3cc[nH]c(=O)c23)cc(OC)c1"
group_label = "n"


Any idea what this test logged for `ClCc1c(Cl)c(Cl)c(Cl)c(CCl)c1Cl` ? n

###

# Test system: IGROV1 ovarian
# test: NCI tumour cell line growth inhibition, 48 h; in the data active means GI50 below about 0.43 µM; inactive means the rest
Respond with a class label; see YES = active, NO = inactive

Below are worked cases with known answers.
[[record]]
molecule = "C[C@@H]1COCCN1c1cc(C2(S(C)(=N)=O)CC2)nc(-c2ccnc3[nH]ccc23)n1 (some centres undefined)"
group_label = "NO"

[[record]]
molecule = "CC1C(=O)C(C)C(c2ccccc2)N(N=O)C1c1ccccc1 (centres undefined)"
group_label = "NO"

[[record]]
molecule = "Fc1cccc(COc2ccc(Nc3ncnc4cc(-c5ccc[nH]5)sc34)cc2Cl)c1"
group_label = "YES"


As a next step, examine the molecule that follows.
Tell me the recorded outcome of this test for CC(=O)OCC1OC(n2ccc(=O)[nH]c2=O)C(OC(C)=O)C1OC(C)=O (centres undefined) . NO
